Assay protocol: chemical genetic growth profiling, strain panel (AID 1159580);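 also: tested at 20 µM; growth read once vehicle control cultures reached saturation at 30 °C; 1 = growth at the plate median or of vehicle wells; lower values mean less growth of the strain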
Conditions used: S. cerevisiae deletion strains, growth OD, locus YDR101C, strain arx1, stronger effect = lower value
The campaign covered roughly 5,500 compounds. About 2,000 (36%) were called active. Not shown: some 18% with an inconclusive outcome. The list shows a part of the results.
// values below are reported normalized growth
I only need the number, thanks.

Example entries begin here.
1) Clc1ccc(C(OCCN2CCCCC2)c2ccccc2)cc1 (centres undefined)
0.982
2) NCCCS(=O)(=O)O
0.999
3) COc1cc2c(cc1OC)C(=O)c1ccc(OC)c(OC)c1OCC(=O)C2
1.06

Specify normalized growth for NCCC(O)C(=O)NC1CC(N)C(OC2OC(CN)C(O)C(O)C2N)C(OC2OC(CO)C(O)C2O)C1O (centres undefined) and stop.
1

###

Assay protocol: chemical genetic growth profiling, strain panel (AID 1159580);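 also: tested at 20 µM; growth read once vehicle control cultures reached saturation at 30 °C; 1 = growth at the plate median or of vehicle wells; lower values mean less growth of the strain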
Conditions used: S. cerevisiae deletion strains, growth OD, locus YBR009C, strain hhf1
Screen size: about 5,500 compounds; about 2,000 (36%) were called active. Inconclusive results (about 18%) are left out. Cut-off read from the data, not from the text of the source: active = normalized growth mostly below about 0.91 (no sharp cut-off); inconclusive = no clear call, values can overlap the other calls; inactive = mostly above about 0.92. The list shows a part of the results.
Respond only with the outcome that fits, drawn from active, inactive

1) CCCCNC(=O)NS(=O)(=O)c1ccc(C)cc1
inactive

Could you check what this test reported for C=CCc1ccc(O)c(OC)c1 ?
inactive

For COc1ccc(C(=O)O)cc1OC , what call appears in the results of this test?
inactive

Could you please tell me the result logged for C=CCc1ccc(OC)cc1 in this assay?
inactive

Give the logged outcome of this assay for the following compound: CC[C@]1(O)CC2CN(CCc3c([nH]c4ccccc34)[C@@](C(=O)OC)(c3cc4c(cc3OC)N(C)[C@H]3[C@@](O)(C(=O)OC)[C@H](OC(C)=O)[C@]5(CC)C=CCN6CC[C@]43[C@@H]65)C2)C1 (some centres not stated)
inactive

# lookup: test call for O=c1cccc2ccc(O)c(O)c2c1O
active

How was COc1ccc([C@H]2Oc3c(I)c(OC)cc(OC)c3C[C@@H]2O)cc1OC classified in this test?
inactive

###

Assay protocol: chemical genetic growth profiling, strain panel (AID 1159580);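 also: tested at 20 µM; growth read once vehicle control cultures reached saturation at 30 °C; 1 = growth at the plate median or of vehicle wells; lower values mean less growth of the strain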
Conditions used: S. cerevisiae deletion strains, growth OD, locus YBR229C, strain ROT2, stronger effect = lower value
About 2,000 (36%) of roughly 5,500 compounds were called active. Another 18% or so got no clear call; they are omitted. This is one part of the list.
Reported normalized growth values for a set of compounds
Returns: the value as a bare number; no unit string appended.

1. CC1(C)CCC[C@@]2(C)C1[C@@H](O)C[C@]1(C)C2CC[C@@H]2[C@@]3(C)CC[C@H](C(C)(C)O)[C@@H]3CC[C@@]21C (some centres not stated)
1

Identify measured normalized growth associated with Cc1ccc(C)n1-c1ccc(C(=O)NNS(=O)(=O)c2ccc(Cl)cc2)cc1
1.01

Report normalized growth for CCc1nnc(N=CNO)s1
0.846

For N[C@@H](Cc1ccc(N(CCCl)CCCl)cc1)C(=O)O , write its normalized growth.
0.947

Give reported normalized growth value for Clc1ccc(C(c2ccc(Cl)cc2)C(Cl)(Cl)Cl)cc1
1.02

Specify reported normalized growth for the compound shown: CCOC(=O)N=Nc1c(O)[nH]c2ccc(F)cc12
1.01

Specify measured normalized growth for CSc1nc2ccccc2[nH]1 .
0.996

Quickly give me recorded normalized growth for O=C(O)CCCc1ccc(N(CCCl)CCCl)cc1
0.95

Please report the measured normalized growth for Cc1nn(C)c(C)c1[N+](=O)[O-]
1.03

Input COc1ccc(C(CN(C)C)C2(O)CCCCC2)cc1 (configuration not stated) , output reported normalized growth.
1.01

Read the entry COc1ccc2c(c1)OC/C(=C\c1ccc(OC)c(O)c1)C2=O and write its reported normalized growth.
0.967

State, in one line, measured normalized growth of COc1cc2nc(N(C)CCCNC(=O)C3CCCO3)nc(N)c2cc1OC (configuration not stated)
1
